- measured.target: human CCR6 (Homo sapiens)
- method: Human CCR6-CRE reporter assay
- Type: cell-based
- Parameters: The second construct contained the open reading frame of human CCR6 in the pUNO1 backbone; host or cells: 293FT cells (transient transfection with TransIT-293)
- cond: 293FT cells transfected with human CCR6 and CRE-luciferase; Forskolin + CCL20, 5 h; relative Log IC50; read-out: CCR6-CRE reporter (converted)
- Procedure: 293FT cells were transfected with 2 constructs using TransIT-293 (Mirus). The first construct (pGL4.29, Promega) expressed the luciferase reporter gene luc2P in response to the binding of cAMP-induced CREB to the CREelement in its promoter. […] Luciferase activity was determined by addition of 24 μl of a 2.5× diluted BriteLite luciferase solution(Perkin Elmer), followed by luminescence measurement using a VICTOR Plate reader (Perkin Elmer). […]
endpoint: IC50 (nM)

For orientation, consider the following solved cases.
O=S(=O)(c1ccc(-c2ccc3nccn3c2)cc1)[C@H]1CC[C@H](Nc2cccc(SC(F)(F)F)c2)CC1 : 63.1
O=C1NCc2ccc(-c3ccc(S(=O)(=O)N4CCC(Nc5cccc(OC(F)(F)F)c5)CC4)cc3)cc21 : 3160
Cc1cnc2ccc(-c3ccc(S(=O)(=O)[C@H]4CC[C@H](Nc5ccc(OC(F)(F)F)cn5)CC4)cc3)cn12 : 158

1. Cc1nnc2ccc(-c3ccc(S(=O)(=O)N4CCC(Nc5ccc(SC(F)(F)F)cn5)CC4)cc3)cn12
2. Cc1cc(-c2ccc(S(=O)(=O)N3CCC(Nc4cc(OC(F)(F)F)ccn4)CC3)cc2)cn2c(C(C)C)nnc12
Query block: Rank 1 against 2 by their IC50 values and give the higher one. Give the chosen item's label as your response.
Result block: 2

###

- measured.target: human CCR6 (Homo sapiens, UniProt P51684)
- method: Human CCR6-CRE reporter assay
- Format: cell-based
- Parameters: The second construct contained the open reading frame of human CCR6 in the pUNO1 backbone; host or cells: 293FT cells (transient transfection with TransIT-293)
- cond: scaffold variant X = O, R1 = CF3; read-out: Activity in human CCR6-CRE reporter assay
pIC50: −log10 of the molar value.
endpoint: pIC50

1. O=S(=O)(c1ccc(-c2ccc3nccn3c2)cc1)N1CCC(Nc2ccc(OC(F)(F)F)cn2)CC1
2. NC(=O)c1cc(-c2ccc(S(=O)(=O)N3CCC(Nc4ccc(OC(F)(F)F)cn4)CC3)cc2)ccn1
3. O=S(=O)(c1ccc(-c2ccccc2)cc1)N1CCC(Nc2ccc(OC(F)(F)F)cc2)CC1
Query block: Method: rank(items above, key=pIC50, ascending=True) Returns: the labels arranged in the requested order.
Result block: 3, 1, 2

###

- measured.target: human CCR6 (Homo sapiens)
- method: CHO-K1 CCR6 chemotaxis assay towards CCL20
- Format: cell-based
- cond: CHO-K1 cells overexpressing human CCR6; 100 ng/ml CCL20, 4 h; relative Log IC50
endpoint: IC50 (nM)

Answered examples (8):
N#Cc1n[nH]c2ccc(-c3ccc(S(=O)(=O)N4CCC(Nc5ccc(OC(F)(F)F)cc5)CC4)cc3)cc12 : 20
Cc1cnc2ccc(-c3ccc(S(=O)(=O)[C@H]4CC[C@H](Nc5ccc(OC(F)(F)F)cc5)CC4)cc3)cn12 : 63.1
Cc1cc(-c2ccc(S(=O)(=O)N3CCC(Nc4ccc(SC(F)(F)F)cc4)CC3)cc2)cn2c(C(C)C)cnc12 : 20
Cc1cnc2ccc(-c3ccc(S(=O)(=O)[C@H]4CC[C@H](Nc5ccc(OC(F)(F)F)cn5)CC4)cc3)cn12 : 79.4
O=S(=O)(c1ccc(-c2ccc3nccn3c2)cc1)[C@H]1CC[C@H](Nc2cccc(SC(F)(F)F)c2)CC1 : 794
Cc1cc(-c2ccc(S(=O)(=O)N3CCC(Nc4ccc(OC(F)(F)F)cn4)CC3)cc2)cn2c(C(C)C)cnc12 : 2
O=S(=O)(c1ccc(-c2ccc3nccn3c2)cc1)[C@H]1CC[C@H](Nc2ccc(OC(F)(F)F)cc2)CC1 : 79.4
N#Cc1c[nH]c2ccc(-c3ccc(S(=O)(=O)N4CCC(Nc5ccc(OC(F)(F)F)cn5)CC4)cc3)cc12 : 10

1. O=c1[nH]nc2ccc(-c3ccc(S(=O)(=O)N4CCC(Nc5ccc(OC(F)(F)F)cn5)CC4)cc3)cn12
2. Cc1cc(-c2ccc(S(=O)(=O)N3CCC(Nc4ccc(OC(F)(F)F)cn4)CC3)cc2)cn2c(C(C)C)nnc12
Query block: When the recorded IC50 values are compared, which is smaller: that of 1 or that of 2 ? Your choice should be expressed through its label.
Result block: 2
(2: 7.94 nM, 1: 31.6 nM)

###

- measured.target: human CCR6 (Homo sapiens)
- method: Human CCR6-CRE reporter assay
- Type: cell-based
- Set-up: The second construct contained the open reading frame of human CCR6 in the pUNO1 backbone; host or cells: 293FT cells (transient transfection with TransIT-293)
- cond: scaffold variant X = S, R1 = CF3; read-out: Activity in human CCR6-CRE reporter assay
pIC50: −log10 of the molar value.
endpoint: pIC50

O=S(=O)(c1ccc(-c2ccc3nccn3c2)cc1)N1CCC(Nc2ccc(SC(F)(F)F)cn2)CC1 : 7.30
NC(=O)c1cc(-c2ccc(S(=O)(=O)N3CCC(Nc4ccc(SC(F)(F)F)cn4)CC3)cc2)ccn1 : 7.13

###

- measured.target: human CCR6 (Homo sapiens)
- Sequence (P51684 1-374): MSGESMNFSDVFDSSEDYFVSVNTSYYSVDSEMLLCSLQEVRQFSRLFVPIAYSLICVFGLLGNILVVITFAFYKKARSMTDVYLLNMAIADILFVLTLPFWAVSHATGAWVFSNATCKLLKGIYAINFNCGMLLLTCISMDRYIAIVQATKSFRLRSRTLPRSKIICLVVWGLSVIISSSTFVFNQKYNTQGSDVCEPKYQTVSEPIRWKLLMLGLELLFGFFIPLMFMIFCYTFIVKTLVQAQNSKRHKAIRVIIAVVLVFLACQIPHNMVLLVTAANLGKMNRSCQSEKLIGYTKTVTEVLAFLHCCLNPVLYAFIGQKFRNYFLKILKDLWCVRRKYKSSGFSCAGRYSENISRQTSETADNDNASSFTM
- method: Human CCR6-CRE reporter assay
- Format: cell-based
- Set-up: The second construct contained the open reading frame of human CCR6 in the pUNO1 backbone; host or cells: 293FT cells (transient transfection with TransIT-293)
- cond: 293FT cells transfected with human CCR6 and CRE-luciferase; Forskolin + CCL20, 5 h; relative Log IC50; read-out: CCR6-CRE reporter (converted)
endpoint: IC50 (µM)

N#Cc1ccc(-c2ccc(S(=O)(=O)[C@H]3CC[C@H](Nc4cccc(OC(F)(F)F)c4)CC3)cc2)cc1 : 0.398
N#Cc1ccc(-c2ccc(S(=O)(=O)N3CCC(Nc4cccc(OC(F)F)c4)CC3)cc2)cc1 : 0.398
Cc1cc(-c2ccc(S(=O)(=O)N3CCC(Nc4ccc(SC(F)(F)F)cn4)CC3)cc2)cn2c(C(C)C)nnc12 : 0.0631
COCc1nnc2ccc(-c3ccc(S(=O)(=O)N4CCC(Nc5ccc(OC(F)(F)F)cc5)CC4)cc3)cn12 : 0.251
CNC(=O)c1cccc(-c2ccc(S(=O)(=O)N3CCC(Nc4ccc(OC(F)(F)F)cc4)CC3C)cc2)c1 (stereo not shown) : 0.126
CC(C)c1cnc2ccc(-c3ccc(S(=N)(=O)[C@H]4CC[C@H](Nc5ccc(SC(F)(F)F)cc5)CC4)cc3)cn12 (stereo partly shown) : 0.0794

a. Cc1n[nH]c2ncc(-c3ccc(S(=O)(=O)[C@H]4CC[C@H](Nc5ccc(SC(F)(F)F)cc5)CC4)cc3)cc12
b. O=S(=O)(c1ccc(-c2ccc3nccn3c2)cc1)[C@H]1CC[C@H](Nc2ccc(SC(F)(F)F)cc2)CC1
c. N=S(=O)(c1ccc(-c2ccc3n[nH]c(=O)n3c2)cc1)[C@H]1CC[C@H](Nc2ccc(SC(F)(F)F)cc2)CC1 (stereo partly shown)
d. CC1CC(Nc2ccc(OC(F)(F)F)cc2)CCN1S(=O)(=O)c1ccc(-c2ccccc2)cc1 (stereo not shown)
e. NC(=O)c1cccc(-c2ccc(S(=O)(=O)N3CCC(Nc4ccc(OC(F)(F)F)cc4)CC3)cc2)c1
Query block: Put the items in order so that reported IC50 rises from first to last. Rank them, then answer with their labels in that order.
Result block: a, b, e, c, d
(a: 0.0398 µM, b: 0.0794 µM, e: 0.126 µM, c: 0.316 µM, d: 2.51 µM)

P. N#Cc1ccc(-c2ccc(S(=O)(=O)N3CCC(Nc4ccc(OC(F)(F)F)cc4)CC3)cc2)cc1
Q. Cc1cc(-c2ccc(S(=O)(=O)[C@H]3CC[C@H](Nc4ccc(SC(F)(F)F)cc4)CC3)cc2)cn2c(C(C)C)cnc12
R. CC1CC(Nc2ccc(OC(F)(F)F)cc2)CCN1S(=O)(=O)c1ccc(-c2ccc3c(c2)C(=O)NC3)cc1 (stereo not shown)
Query block: Rank items: key IC50, increasing. Use the labels to give the ranking in the order requested.
Result block: P, Q, R
(P: 0.0398 µM, Q: 0.0794 µM, R: 0.251 µM)
